Data origin: patent US20230183713A1

experimental_target: T1, Cre recombinase monomer with W315I mutation
T1 chain: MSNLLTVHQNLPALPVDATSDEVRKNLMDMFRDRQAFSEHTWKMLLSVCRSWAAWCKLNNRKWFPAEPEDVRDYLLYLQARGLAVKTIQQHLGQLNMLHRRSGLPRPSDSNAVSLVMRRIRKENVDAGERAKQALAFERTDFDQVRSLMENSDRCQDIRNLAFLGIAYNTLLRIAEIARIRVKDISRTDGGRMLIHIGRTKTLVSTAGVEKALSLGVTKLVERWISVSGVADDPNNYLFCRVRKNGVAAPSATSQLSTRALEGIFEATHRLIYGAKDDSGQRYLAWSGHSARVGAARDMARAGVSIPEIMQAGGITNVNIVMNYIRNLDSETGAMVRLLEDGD
# reported Median dimer activity (recombination on loxP); entries follow
Give just the number in %; leave the unit off.

Previously resolved entries follow.
protein | recorded_value
Cre recombinase monomer with K201Q mutation (protein) MSNLLTVHQNLPALPVDATSDEVRKNLMDMFRDRQAFSEHTWKMLLSVCRSWAAWCKLNNRKWFPAEPEDVRDYLLYLQARGLAVKTIQQHLGQLNMLHRRSGLPRPSDSNAVSLVMRRIRKENVDAGERAKQALAFERTDFDQVRSLMENSDRCQDIRNLAFLGIAYNTLLRIAEIARIRVKDISRTDGGRMLIHIGRTQTLVSTAGVEKALSLGVTKLVERWISVSGVADDPNNYLFCRVRKNGVAAPSATSQLSTRALEGIFEATHRLIYGAKDDSGQRYLAWSGHSARVGAARDMARAGVSIPEIMQAGGWTNVNIVMNYIRNLDSETGAMVRLLEDGD | 30
Cre recombinase monomer with R173N mutation (protein) MSNLLTVHQNLPALPVDATSDEVRKNLMDMFRDRQAFSEHTWKMLLSVCRSWAAWCKLNNRKWFPAEPEDVRDYLLYLQARGLAVKTIQQHLGQLNMLHRRSGLPRPSDSNAVSLVMRRIRKENVDAGERAKQALAFERTDFDQVRSLMENSDRCQDIRNLAFLGIAYNTLLNIAEIARIRVKDISRTDGGRMLIHIGRTKTLVSTAGVEKALSLGVTKLVERWISVSGVADDPNNYLFCRVRKNGVAAPSATSQLSTRALEGIFEATHRLIYGAKDDSGQRYLAWSGHSARVGAARDMARAGVSIPEIMQAGGWTNVNIVMNYIRNLDSETGAMVRLLEDGD | 38

Problem: Given the entry Cre recombinase monomer with Q311R mutation (protein) MSNLLTVHQNLPALPVDATSDEVRKNLMDMFRDRQAFSEHTWKMLLSVCRSWAAWCKLNNRKWFPAEPEDVRDYLLYLQARGLAVKTIQQHLGQLNMLHRRSGLPRPSDSNAVSLVMRRIRKENVDAGERAKQALAFERTDFDQVRSLMENSDRCQDIRNLAFLGIAYNTLLRIAEIARIRVKDISRTDGGRMLIHIGRTKTLVSTAGVEKALSLGVTKLVERWISVSGVADDPNNYLFCRVRKNGVAAPSATSQLSTRALEGIFEATHRLIYGAKDDSGQRYLAWSGHSARVGAARDMARAGVSIPEIMRAGGWTNVNIVMNYIRNLDSETGAMVRLLEDGD , report its measured Median dimer activity (recombination on loxP).
Result: 92
